# Test system: Danio rerio Tg(wt1b:EGFP) embryo, pronephros
# PROTOCOL DESCRIPTION: pronephric angle neck segment to proximal convoluted tubule (mean of left and right), fold change vs DMSO control; higher = larger pronephric angle
# EXPERIMENTAL CONTEXT: 25 µM; exposure: 24-48 hpf
Counter-ions that a name gives are not always drawn.
READOUT KIND: pronephric angle neck segment

1) COC(=O)C1=C(C)NC(C)=C(C(=O)OC)C1c1ccccc1[N+](=O)[O-] | 1.33
2) Nc1nc2n[nH]nc2c(=O)[nH]1 | 0.984
3) Cc1cc(=O)oc2cc(O)ccc12 | 0.98
4) Cn1cnc([N+](=O)[O-])c1Sc1ncnc2[nH]cnc12 | 0.994
5) CCC(=O)O[C@]1(C(=O)SCF)[C@H](C)C[C@H]2[C@@H]3C[C@H](F)C4=CC(=O)C=C[C@]4(C)[C@@]3(F)[C@@H](O)C[C@@]21C [Fluticasone propionate] | 1.04
6) Cc1cc(C(=O)NNCc2ccccc2)no1 | 1.38
7) CNCCc1ccccn1 [Betahistine mesylate] | 0.97
8) CC(CN(C)C)CN1c2ccccc2CCc2ccccc21 (centres undefined) [Trimipramine maleate salt] | 0.972
9) N=C(N)N1CCc2ccccc2C1 [Debrisoquin sulfate] | 1.01

----------
# Tested on: Danio rerio Tg(wt1b:EGFP) embryo, pronephros
# PROTOCOL DESCRIPTION: fraction of imaged embryos annotated as normal kidney; higher = less nephrotoxic; extreme values may be limits of the assay
# EXPERIMENTAL CONTEXT: 25 µM; exposure: 24-48 hpf
Where a name gives a salt, the structure may show the parent alone.
READOUT KIND: fraction of imaged embryos annotated as normal kidney

1. CC(=O)Nc1c(I)c(NC(C)=O)c(I)c(C(=O)O)c1I [Diatrizoic acid dihydrate] | 0.583
2. CN(C)/N=N/c1[nH]cnc1C(N)=O | 1
3. COc1cc(C(=O)NC2CCCNC2)cc(OC)c1OC (centres undefined) [Troxipide] | 0.917
4. CCN(CCCCOC(=O)c1ccc(OC)c(OC)c1)C(C)Cc1ccc(OC)cc1 (centres undefined) [Mebeverine hydrochloride] | 0.833
5. O=C1OC(CN2CCOCC2)CN1/N=C/c1ccc([N+](=O)[O-])o1 (centres undefined) [Furaltadone hydrochloride] | 0.75
6. Cc1ccsc1/C=C/C1=NCCCN1C [Morantel tartrate] | 0.5
7. COc1cc2nc(N(C)CCCNC(=O)C3CCCO3)nc(N)c2cc1OC (centres undefined) [Alfuzosin hydrochloride] | 0.818
8. COc1ccc(OC)c(C(O)CNC(=O)CN)c1 (centres undefined) [Midodrine hydrochloride] | 0.833
9. CCOc1ccc(NC(C)=O)cc1 | 0.667

----------
# Tested on: Danio rerio Tg(wt1b:EGFP) embryo, pronephros
# PROTOCOL DESCRIPTION: glomerular separation, fold change vs DMSO control; higher = glomeruli further apart (abnormal)
# EXPERIMENTAL CONTEXT: 25 µM; exposure: 24-48 hpf
Counter-ions that a name gives are not always drawn.
READOUT KIND: glomerular separation

1. CC[C@@]1(O)C(=O)OCc2c1cc1n(c2=O)Cc2cc3c(CN(C)C)c(O)ccc3nc2-1 | 1.74
2. CCOC(=O)/C=C(C)/C=C/C=C(C)/C=C/c1c(C)cc(OC)c(C)c1C [Etretinate] | 0.794
3. CC(=O)c1ccc(S(=O)(=O)NC(=O)NC2CCCCC2)cc1 [Acetohexamide] | 0.839
4. COc1ccc(-c2cc(=S)ss2)cc1 | 1.04
5. CCOC(=O)NNc1nncc2ccccc12 [Todralazine hydrochloride] | 0.937
6. C[C@@H]1C[C@H]2[C@@H]3C[C@H](F)C4=CC(=O)C=C[C@]4(C)[C@@]3(F)[C@@H](O)C[C@]2(C)[C@@]1(O)C(=O)COC(=O)C(C)(C)C [Flumethasone pivalate] | 1.2
7. COc1cc([S+](C)[O-])ccc1-c1nc2cccnc2[nH]1 (configuration not stated) | 0.979
8. CN(C)CCC=C1c2ccccc2CCc2ccccc21 [Amitryptiline hydrochloride] | 1.3
9. CC(CN1c2ccccc2Sc2ccccc21)N(C)C (configuration not stated) [Promethazine hydrochloride] | 0.666
10. CN(Cc1cnc2nc(N)nc(N)c2n1)c1ccc(C(=O)N[C@@H](CCC(=O)O)C(=O)O)cc1 [Methotrexate] | 1.19
11. CC1COc2c(N3CCN(C)CC3)c(F)cc3c(=O)c(C(=O)O)cn1c23 (configuration not stated) | 1.32
12. COc1cc2nc(N3CCN(C(=O)C4COc5ccccc5O4)CC3)nc(N)c2cc1OC (configuration not stated) [Doxazosin mesylate] | 0.958
13. COc1cc(C(=O)OCCCN2CCCN(CCCOC(=O)c3cc(OC)c(OC)c(OC)c3)CC2)cc(OC)c1OC [Dilazep dihydrochloride] | 1
14. CN1CCCC(n2nc(Cc3ccc(Cl)cc3)c3ccccc3c2=O)CC1 (configuration not stated) [Azelastine hydrochloride] | 0.737
15. CCOc1ccc2ccccc2c1C(=O)N[C@@H]1C(=O)N2[C@@H]1SC(C)(C)[C@@H]2C(=O)O [Nafcillin sodium salt monohydrate] | 0.868
16. N[C@H]1CONC1=O [(S)-(-)-Cycloserine] | 0.898
17. Cc1ncc([N+](=O)[O-])n1CC(O)CCl (configuration not stated) | 0.923
